Reported z-score by item:
# system: Metabotropic glutamate receptor 8 (Rattus norvegicus) (UniProt P70579)
# Sequence (P70579 whole entry, looked up): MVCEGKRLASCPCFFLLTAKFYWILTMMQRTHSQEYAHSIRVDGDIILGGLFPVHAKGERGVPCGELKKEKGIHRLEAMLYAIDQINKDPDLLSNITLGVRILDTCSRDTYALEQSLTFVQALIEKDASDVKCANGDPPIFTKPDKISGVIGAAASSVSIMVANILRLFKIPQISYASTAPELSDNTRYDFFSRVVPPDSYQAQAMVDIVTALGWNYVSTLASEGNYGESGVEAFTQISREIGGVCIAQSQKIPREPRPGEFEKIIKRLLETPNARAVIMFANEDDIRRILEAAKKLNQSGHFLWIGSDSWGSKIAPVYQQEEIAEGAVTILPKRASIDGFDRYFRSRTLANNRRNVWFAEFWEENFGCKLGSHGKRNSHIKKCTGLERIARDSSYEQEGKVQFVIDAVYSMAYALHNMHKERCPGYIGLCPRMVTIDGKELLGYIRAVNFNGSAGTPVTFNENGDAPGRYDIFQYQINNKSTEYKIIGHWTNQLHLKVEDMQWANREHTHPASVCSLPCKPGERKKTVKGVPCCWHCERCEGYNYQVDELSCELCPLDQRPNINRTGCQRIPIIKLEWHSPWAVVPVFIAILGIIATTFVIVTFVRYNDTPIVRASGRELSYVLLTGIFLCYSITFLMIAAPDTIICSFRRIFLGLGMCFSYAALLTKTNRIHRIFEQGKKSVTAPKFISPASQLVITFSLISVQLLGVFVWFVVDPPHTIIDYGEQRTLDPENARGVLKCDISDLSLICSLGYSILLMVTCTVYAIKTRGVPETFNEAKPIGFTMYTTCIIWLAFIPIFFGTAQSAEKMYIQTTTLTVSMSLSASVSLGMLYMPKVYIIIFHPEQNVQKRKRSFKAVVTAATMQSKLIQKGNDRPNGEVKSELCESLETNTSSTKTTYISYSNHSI
# procedure.text: mGluR8 Gi/Go-coupled signaling modulation – cell-based, rat, thallium flux, HTS, primary screen (AID 488969)
# settings: HEK293 rat mGluR8, GIRK (G protein-gated inwardly rectifying potassium channel) thallium flux, FluoZin2; at 10 µM; stronger effect = higher value; submaximal glutamate (EC20) added with thallium
Over roughly 110,000 compounds, “z-score” has its median near -0.1; the highest 2% begin near 2. This excerpt belongs to a sample that is enriched for the highest values.
Note: the reply should be a number with no unit written.

Q: Form entry - test system: Metabotropic glutamate receptor 8 (Rattus norvegicus) (UniProt P70579); read-out: z-score; compound: "Cc1sc2nc(SCC(=O)NCc3ccco3)n(Cc3ccccc3)c(=O)c2c1C"
Result: -0.304

Q: Report z-score for COc1ccc(OCC(O)CN(C2CCCCC2)C2CCCCC2)cc1 (stereo not given) tested on Metabotropic glutamate receptor 8 (Rattus norvegicus) (UniProt P70579).
Result: 0.744
